Give measured protein stability index for each item. Keep answers brief.
B1: MLH1 (parent)
chain: YNIATRRKALKNPSEEYGKILEVV

- Variants of: B1
- test-method-notes: protein stability index of a GFP-peptide fusion (GPS, HEK-293T) (PSI 1-6); higher = more stable;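 further: lentivirally expressed fusions sorted by FACS into six bins by GFP to DsRed ratio, PSI derived from sequencing read proportions per bin multiplied by bin number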
- condition-info: c terminus: a fixed tail appended

Sample answers from the record:
YNIATRKKALKNPSEEYGKILEVV: 2.48
YNIATRRKARKNPSEEYGKILEVV: 3.13
YNIATRRGALKNPSEEYGKILEVV: 3.37
YNIATRRVALKNPSEEYGKILEVV: 2.2
YNIATRRKALKNPSECYGKILEVV: 1.85
YNIATRRKALKNPSEEYGKFLEVV: 2.39

Batch request: protein stability index per item, same order as input.
1. YNIATRRKALKNPSEEYGCILEVV
2. YNIATRRKALKNPFEEYGKILEVV
3. YNIATRRKALKNPSEEYQKILEVV
4. YNIATRRKALKRPSEEYGKILEVV
5. YNIATRRKALKNPSEEYGKILEVE
6. YNGATRRKALKNPSEEYGKILEVV
7. YNIACRRKALKNPSEEYGKILEVV

Ans:
1. 1.8
2. 2.01
3. 2.7
4. 3.3
5. 3.98
6. 2.97
7. 2.17
